target of assay: HPK1 (Homo sapiens (Human))
Sequence (Q92918 whole entry): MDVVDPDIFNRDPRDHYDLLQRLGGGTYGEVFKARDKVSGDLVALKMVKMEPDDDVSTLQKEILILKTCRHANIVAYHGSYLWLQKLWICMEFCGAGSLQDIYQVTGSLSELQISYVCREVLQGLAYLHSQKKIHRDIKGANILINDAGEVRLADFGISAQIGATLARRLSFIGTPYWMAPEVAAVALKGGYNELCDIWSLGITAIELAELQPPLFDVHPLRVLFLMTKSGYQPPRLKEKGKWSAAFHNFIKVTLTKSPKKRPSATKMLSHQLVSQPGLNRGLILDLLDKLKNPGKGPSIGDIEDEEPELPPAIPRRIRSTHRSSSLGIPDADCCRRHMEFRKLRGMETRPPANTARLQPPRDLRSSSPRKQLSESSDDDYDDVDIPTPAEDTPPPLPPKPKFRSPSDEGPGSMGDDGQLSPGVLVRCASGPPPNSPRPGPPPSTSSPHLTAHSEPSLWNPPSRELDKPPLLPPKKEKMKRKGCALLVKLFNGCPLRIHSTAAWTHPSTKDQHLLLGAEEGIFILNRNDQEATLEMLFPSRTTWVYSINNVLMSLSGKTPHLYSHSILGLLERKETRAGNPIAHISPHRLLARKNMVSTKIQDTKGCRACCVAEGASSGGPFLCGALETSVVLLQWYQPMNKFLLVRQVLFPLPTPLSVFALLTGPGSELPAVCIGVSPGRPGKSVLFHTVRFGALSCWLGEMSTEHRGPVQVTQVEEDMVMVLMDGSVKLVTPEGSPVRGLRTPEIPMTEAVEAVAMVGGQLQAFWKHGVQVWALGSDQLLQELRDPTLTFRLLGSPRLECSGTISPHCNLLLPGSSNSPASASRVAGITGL
pIC50: −log10 of the molar value. Where a name gives a salt, the structure may show the parent alone.
Property: pIC50; scope: individual molecules
property label: pIC50

                                    molecule        result
 0  Cc1cc(Cl)cc(F)c1-n1nc2c(-c3ccc(N4CCN(C)CC4)cc3)n[nH]c2cc1=O [Compound 78]  6.30 to 7.30
 1  COc1cc(C)c(-n2nc3c(-c4ccc(N5CCN(C)CC5)cc4)n[nH]c3cc2=O)cn1 [Compound 149]  5.70 to 6.30
 2  COc1cccc(F)c1-n1nc2c(-c3ccc(N4CCOCC4)cc3)n[nH]c2c(C)c1=O [Compound 155]  6.30 to 7.30
 3  COc1ccncc1-n1nc2c(-c3ccc(N4CCN(C)CC4)cc3)n[nH]c2cc1=O [Compound 48]  6.30 to 7.30
 4  COc1cccc(F)c1-n1nc2c(-c3ccc(N4CCN(C)CC4)cc3)n[nH]c2cc1=O [Compound 9]        ≥ 7.30
 5  Cc1ccncc1-n1nc2c(-c3ccc(C4=CCN(C)CC4)cc3)n[nH]c2cc1=O [Compound 150]  5.70 to 6.30
 6  Cc1cccc(F)c1-n1nc2c(-c3ccc4c(c3)C(=O)N(C)CC4)n[nH]c2cc1=O [Compound 183]  5.70 to 6.30
 7  COc1ccc(-n2nc3c(-c4ccc(N5CCN(C)CC5)cc4)n[nH]c3cc2=O)c(OC)c1 [Compound 25]  6.30 to 7.30
 8  Cc1cccc(F)c1-n1nc2c(-c3ccc(N4CCN(C)C(C)(C)C4)cc3)n[nH]c2cc1=O [Compound 89]        ≥ 7.30
 9  COc1cccc(F)c1-n1nc2c(-c3cccc(N4CCN(C)CC4)c3)n[nH]c2cc1=O [Compound 199]        ≥ 7.30
10  Cc1cccc(F)c1-n1nc2c(-c3ccc4c(c3)CN(C3CNC3)CC4)n[nH]c2cc1=O [Compound 164, hydrochloride]  6.30 to 7.30
11  COc1cccc(F)c1-n1nc2c(-c3ccc4c(c3)CN(C)CC4)n[nH]c2cc1=O [Compound 73]        ≥ 7.30
12  Cc1cccc(F)c1-n1nc2c(-c3ccc(CN4CCN(C)CC4=O)cc3)n[nH]c2cc1=O [Compound 15]  5.70 to 6.30
13  Cc1cccc(F)c1-n1nc2c(-c3ccc(N4CCC(N5CCN(C)CC5)CC4)cc3)n[nH]c2cc1=O [Compound 143]        ≥ 7.30
14  COc1cccc(F)c1-n1nc2c(-c3ccc(N4CCC(O)CC4)cc3)n[nH]c2cc1=O [Compound 139]        ≥ 7.30
15  Cc1cccc(F)c1-n1nc2c(-c3ccc4c(c3)CCN(C3CCN(C)CC3)C4)n[nH]c2cc1=O [Compound 196, hydrochloride]  6.30 to 7.30
16  Cc1cccc(F)c1-n1nc2c(-c3ccc(N4CC5CC(C4)N5C)cc3)n[nH]c2cc1=O [Compound 91]        ≥ 7.30
17  Cc1ccncc1-n1nc2c(-c3ccc(N4CCN(C)CC4)cc3)n[nH]c2cc1=O [Compound 47]  5.70 to 6.30
18  COc1ccccc1-n1nc2c(-c3ccc(N4CCN(C)CC4)cc3)n[nH]c2cc1=O [Compound 3]        ≥ 7.30
19  CC(C)c1cccc(F)c1-n1nc2c(-c3ccc(N4CCN(C)CC4)cc3)n[nH]c2cc1=O [Compound 29]        ≥ 7.30
20  COc1cccc(F)c1-n1nc2c(-c3ccc(N4CCN(C)CC4)cc3)n[nH]c2c(C)c1=O [Compound 154]  6.30 to 7.30
21  Cc1cccc(F)c1-n1nc2c(-c3ccc(N4C[C@@H]5C[C@H]4CN5C)cc3)n[nH]c2cc1=O [Compound 87]        ≥ 7.30
22  Cc1cccc(F)c1-n1nc2c(-c3ccc(N4CCN(C5COC5)CC4)nc3)n[nH]c2cc1=O [Compound 103]        ≥ 7.30

----------
Tested on: Human Jurkat-E6-1 cells
procedure details: Measurement of IL-2 secretion of Jurkat cells by ELISA
Type: cell-based
condition parameters: Homo sapiens, Jurkat E6.1; test compound 3.0 μM; anti-CD3/anti-CD28 stimulation 24 hours; read-out: Percentage of the amount of IL-2 secreted from compound treated/DMSO-treated cells
property label: activity at 3 µM (%)

>>> df
                                    compound    property_label  result_number
 0  COc1cccc(F)c1-n1nc2c(-c3ccc(N4CCC(C)(N(C)C)CC4)cc3)n[nH]c2cc1=O [Compound 147]  activity at 3 µM            616
 1  Cc1cccc(F)c1-n1nc2c(-c3ccc(N4C[C@@H](C)N(C)[C@@H](C)C4)cc3)n[nH]c2cc1=O [Compound 90]  activity at 3 µM            667
 2  Cc1cc(C#N)cc(F)c1-n1nc2c(-c3ccc(N4CCN(C(=O)C(C)O)CC4)cc3)n[nH]c2cc1=O (stereo not shown) [Compound 83]  activity at 3 µM            252
 3  CN1CCN(c2ccc(-c3n[nH]c4cc(=O)n(-c5cccc6c5OCO6)nc34)cc2)CC1 [Compound 76]  activity at 3 µM            561
 4  CN1CCN(c2ccc(-c3n[nH]c4cc(=O)n(-c5c(F)cccc5Cl)nc34)cn2)CC1 [Compound 107]  activity at 3 µM            599
 5  Cc1cccc(F)c1-n1nc2c(-c3ccc(N4CCN(C5COC5)CC4)nc3)n[nH]c2cc1=O [Compound 103]  activity at 3 µM            716
 6  [2H]C([2H])([2H])N1CCN(c2ccc(-c3n[nH]c4cc(=O)n(-c5c(C)cccc5F)nc34)cc2)CC1 [Compound 81]  activity at 3 µM            679
 7  Cc1cccc(F)c1-n1nc2c(-c3ccc(N4CCN(C)C(CO)C4)nc3)n[nH]c2cc1=O (stereo not shown) [Compound 128]  activity at 3 µM            472
 8  COc1cccc(F)c1-n1nc2c(-c3ccc(N4CCC(O)CC4)cc3)n[nH]c2cc1=O [Compound 139]  activity at 3 µM            315
 9  Cc1cc(C#N)cc(F)c1-n1nc2c(-c3ccc(N4CCN(C5CCOC5)CC4)cc3)n[nH]c2cc1=O (stereo not shown) [Compound 85]  activity at 3 µM            239
10  COc1ccncc1-n1nc2c(-c3ccc(C4=CCN(C)CC4)cc3)n[nH]c2cc1=O [Compound 151]  activity at 3 µM            230
11  COc1cccc(F)c1-n1nc2c(-c3ccc(N4CCN5CCOC[C@H]5C4)cc3)n[nH]c2cc1=O [Compound 136]  activity at 3 µM            702
12  Cc1cccc(F)c1-n1nc2c(-c3ccc(OCC4CNCCN4)cc3)n[nH]c2cc1=O (stereo not shown) [Compound 93]  activity at 3 µM            210
13  COc1cc(C#N)cc(F)c1-n1nc2c(-c3ccc(N4CCN(C5COC5)CC4)cc3)n[nH]c2cc1=O [Compound 86]  activity at 3 µM            334
14  COc1cccc(F)c1-n1nc2c(-c3ccc(N4CCN(C)CC4)cc3)n[nH]c2cc1=O [Compound 9]  activity at 3 µM            188
15  Cc1cc(C#N)cc(F)c1-n1nc2c(-c3ccc(N4CCN(C)CC4)cc3)n[nH]c2cc1=O [Compound 42]  activity at 3 µM            365
16  Cc1cccc(F)c1-n1nc2c(-c3ccc(N4CCN5CCOC[C@H]5C4)cc3)n[nH]c2cc1=O [Compound 134]  activity at 3 µM            527
17  Cc1cccc(F)c1-n1nc2c(-c3ccc(N4CCN(C5CCOC5)CC4)nc3)n[nH]c2cc1=O (stereo not shown) [Compound 106]  activity at 3 µM            833
18  [2H]C([2H])([2H])N1CCc2ccc(-c3n[nH]c4cc(=O)n(-c5c(C)cccc5F)nc34)cc2C1 [Compound 157]  activity at 3 µM            935
19  CCc1cccc(F)c1-n1nc2c(-c3ccc(N4CCN(C)CC4)nc3)n[nH]c2cc1=O [Compound 98]  activity at 3 µM            850
20  COc1cc(C(=O)N(C)C)cc(F)c1-n1nc2c(-c3ccc(N4CCN(C)CC4)cc3)n[nH]c2cc1=O [Compound 80]  activity at 3 µM            191
21  Cc1cccc(F)c1-n1nc2c(-c3ccc(N4CCC(O)CC4)cc3)n[nH]c2cc1=O [Compound 138]  activity at 3 µM            873
